Data credit: ChEMBL document CHEMBL1148413

The following molecules are listed with their measured IC50 values.
- tested system: UniProt P35228
- Sequence (P35228 whole entry): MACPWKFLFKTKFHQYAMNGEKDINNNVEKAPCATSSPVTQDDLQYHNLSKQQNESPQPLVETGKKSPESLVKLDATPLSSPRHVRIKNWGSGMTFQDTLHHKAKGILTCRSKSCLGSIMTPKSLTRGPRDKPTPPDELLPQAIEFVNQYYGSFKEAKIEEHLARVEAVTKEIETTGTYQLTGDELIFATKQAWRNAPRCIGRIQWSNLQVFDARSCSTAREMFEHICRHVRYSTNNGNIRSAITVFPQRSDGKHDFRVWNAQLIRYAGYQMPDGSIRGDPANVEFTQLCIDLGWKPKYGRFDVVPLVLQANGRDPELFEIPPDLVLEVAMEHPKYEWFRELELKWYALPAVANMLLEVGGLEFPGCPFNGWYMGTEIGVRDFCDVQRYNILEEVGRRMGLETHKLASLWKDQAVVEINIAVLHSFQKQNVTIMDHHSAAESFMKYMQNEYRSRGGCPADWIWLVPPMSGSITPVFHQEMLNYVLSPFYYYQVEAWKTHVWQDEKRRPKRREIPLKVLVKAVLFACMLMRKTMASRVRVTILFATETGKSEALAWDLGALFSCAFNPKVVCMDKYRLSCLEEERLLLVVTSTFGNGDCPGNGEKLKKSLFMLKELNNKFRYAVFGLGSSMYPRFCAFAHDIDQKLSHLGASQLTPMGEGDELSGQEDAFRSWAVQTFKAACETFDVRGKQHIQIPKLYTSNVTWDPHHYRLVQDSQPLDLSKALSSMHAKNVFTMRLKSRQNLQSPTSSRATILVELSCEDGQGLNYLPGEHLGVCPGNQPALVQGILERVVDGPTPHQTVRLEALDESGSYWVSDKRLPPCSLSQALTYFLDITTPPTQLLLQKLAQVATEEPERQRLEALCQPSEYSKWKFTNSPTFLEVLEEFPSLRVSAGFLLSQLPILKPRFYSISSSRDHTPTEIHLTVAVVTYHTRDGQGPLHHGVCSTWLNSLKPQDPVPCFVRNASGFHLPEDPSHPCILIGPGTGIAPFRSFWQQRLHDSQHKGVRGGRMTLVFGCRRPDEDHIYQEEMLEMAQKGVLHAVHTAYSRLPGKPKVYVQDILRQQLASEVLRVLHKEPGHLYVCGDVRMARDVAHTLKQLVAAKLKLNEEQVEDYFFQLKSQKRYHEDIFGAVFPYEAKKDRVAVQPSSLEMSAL
Form entry: value (µM) — number only.

INSERT INTO results (compound_string, result_units, recorded_measurement) VALUES
  ('CC(=N)NC[C@@H](F)CC[C@H](N)C(=O)O', 'µM', 2.36),
  ('CC(=N)NCCCC[C@H](N)C(=O)O', 'µM', 4.9);

Now for another entry.
Exercise: UniProt P35228 / IC50 / CC(=N)NCC(F)(F)CC[C@H](N)C(=O)O : value?
Key: 8.75

====

The following molecules are listed with their measured Selectivity values.
- tested system: Nitric oxide synthase 3 (Homo sapiens)
- Sequence (whole entry): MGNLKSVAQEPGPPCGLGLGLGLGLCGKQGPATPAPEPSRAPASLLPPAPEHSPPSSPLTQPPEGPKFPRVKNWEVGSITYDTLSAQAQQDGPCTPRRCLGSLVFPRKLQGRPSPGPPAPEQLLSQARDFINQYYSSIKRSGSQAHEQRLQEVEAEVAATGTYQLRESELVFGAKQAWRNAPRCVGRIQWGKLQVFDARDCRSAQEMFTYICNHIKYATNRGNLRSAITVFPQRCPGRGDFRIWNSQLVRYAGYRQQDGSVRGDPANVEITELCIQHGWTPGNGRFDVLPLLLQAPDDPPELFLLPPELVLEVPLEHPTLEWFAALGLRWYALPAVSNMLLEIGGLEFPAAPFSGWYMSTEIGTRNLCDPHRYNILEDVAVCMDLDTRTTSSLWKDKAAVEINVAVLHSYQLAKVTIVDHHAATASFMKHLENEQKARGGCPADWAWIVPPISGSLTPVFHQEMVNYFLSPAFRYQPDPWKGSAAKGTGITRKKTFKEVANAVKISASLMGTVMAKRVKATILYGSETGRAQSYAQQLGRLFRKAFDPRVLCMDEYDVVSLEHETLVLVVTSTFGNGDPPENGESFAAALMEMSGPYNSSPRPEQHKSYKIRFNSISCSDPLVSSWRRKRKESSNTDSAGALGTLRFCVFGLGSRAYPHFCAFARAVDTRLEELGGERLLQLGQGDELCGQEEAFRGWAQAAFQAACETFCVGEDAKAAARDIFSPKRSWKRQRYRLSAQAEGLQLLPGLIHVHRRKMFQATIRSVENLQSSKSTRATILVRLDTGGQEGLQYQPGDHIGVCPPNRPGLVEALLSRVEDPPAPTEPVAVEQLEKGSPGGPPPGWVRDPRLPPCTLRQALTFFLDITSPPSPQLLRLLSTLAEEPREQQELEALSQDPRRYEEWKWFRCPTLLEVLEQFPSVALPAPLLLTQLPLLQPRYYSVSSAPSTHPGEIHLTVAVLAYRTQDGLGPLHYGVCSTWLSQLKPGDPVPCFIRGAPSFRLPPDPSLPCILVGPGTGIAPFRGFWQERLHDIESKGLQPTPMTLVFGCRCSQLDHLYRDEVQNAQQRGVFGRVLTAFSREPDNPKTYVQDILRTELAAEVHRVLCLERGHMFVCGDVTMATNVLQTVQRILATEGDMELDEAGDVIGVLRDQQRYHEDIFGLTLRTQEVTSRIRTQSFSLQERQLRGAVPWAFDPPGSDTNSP
- assay comment: Selectivity for endothelial nitric oxide synthase over inducible nitric oxide synthase

INSERT INTO results (molecule, assay_readout, recorded_measurement) VALUES
  ('CC(=N)NCC(F)(F)CC[C@H](N)C(=O)O', 'Selectivity', 7),
  ('CC(=N)NC[C@@H](F)CC[C@H](N)C(=O)O', 'Selectivity', 34),
  ('CC(=N)NC[C@@H](F)CC[C@@H](N)C(=O)O', 'Selectivity', 8),
  ('CC(=N)NCC(F)(F)CCC(N)C(=O)O (stereo unspecified)', 'Selectivity', 7),
  ('CC(=N)NCCCC[C@H](N)C(=O)O', 'Selectivity', 28);

Now for another entry.
Exercise: Nitric oxide synthase 3 (Homo sapiens) / Selectivity / CC(=N)NCC(F)CCC(N)C(=O)O (stereo unspecified) : value?
Key: 23
